Listed next: entries and their corresponding GI50.
# Tested on: K562
# test: NCI tumour cell line growth inhibition, 48 h
The source made the active and inactive calls. Rule as the data show it: active = GI50 up to about 1.1 µM and inactive = higher.

Answered cases to consult:
Query CCOC(=O)N1CCN(c2nc(C)n(-c3ccccc3)c(=S)c2C#N)CC1 on K562; GI50 returned: > 50 µM (inactive)

Query Nc1nc(Cl)cc(NCCCCCCCCNc2cc(Cl)nc(N)n2)n1 on K562; GI50 returned: 2.2 µM (inactive)

Query C[C@H](NS(=O)(=O)c1ccc(NC(=O)c2ccccc2)cc1)C(=O)O on K562; GI50 returned: > 100 µM (inactive)

Query N=C(N)NS(=O)(=O)c1ccc(NNc2c3ccccc3nc3ccccc23)cc1 on K562; GI50 returned: 6.04 µM (inactive)

Query COc1cc(CO)cc2c1[nH]c1ccccc12 [KOENOLINE] on K562; GI50 returned: 11.9 µM (inactive)

Query N=C1NC(=O)N2CC12 (stereo not given) [IMEXON] on K562; GI50 returned: 73.1 µM (inactive)

Query CC(=O)NNc1nc(C)c(C(=O)NNC(=O)C(=O)Nc2ccc(Cl)cc2Cl)s1 on K562; GI50 returned: 21 µM (inactive)

Query c1cc2cc(c1)CN1CCNCCN(CCNCC1)Cc1cccc(c1)CN1CCNCCN(CCNCC1)C2 on K562; GI50 returned: > 100 µM (inactive)

Query O=C1NC(=O)C2C(=O)NC(=O)C1C2c1c(Cl)cccc1Cl (stereo not given) on K562; GI50 returned: > 49.4 µM (inactive)

Query CC1=CC=C2C(C)(C)CC[C@@H]3OC(=O)[C@H]1[C@]23C on K562; GI50 returned: > 100 µM (inactive)

More entries:
Query Cn1/c(=N\c2ccc(Cl)cc2)sc2ccccc21 on K562; GI50 returned: 57.9 µM (inactive)

Query CCCCOC(=O)CNC(=O)OC/C=C/C#CC#C/C=C/COC(=O)NCC(=O)OCCCC on K562; GI50 returned: > 10 µM (inactive)

Query CSc1cc(Cl)c(C)cc1S(=O)(=O)NC(=O)NNc1ccccn1 on K562; GI50 returned: > 100 µM (inactive)

Query CCOC(=O)C[C@@]12CCCNC1(C)CCc1ccccc12 (stereo not given in full) on K562; GI50 returned: > 100 µM (inactive)

* * *

# Test system: OVCAR-8
# test: NCI tumour cell line growth inhibition, 48 h
Active and inactive are the calls of the source. No stated cut-off is given here; in the data, active = GI50 up to about 1.1 µM and inactive = higher.
attribute measured: GI50

Answered cases to consult:
// sample CSc1cc(Cl)c(C)cc1S(=O)(=O)NC(=O)NNc1ccccn1 , its GI50 was > 100 µM (inactive)

// sample COc1nc(N=P(c2ccccc2)(c2ccccc2)c2ccccc2)cc(=O)n1C , its GI50 was > 100 µM (inactive)

// sample OC(C1CCCC1=N/N=C1/CCCC1C(O)(C(F)(F)Cl)C(F)(F)Cl)(C(F)(F)Cl)C(F)(F)Cl (stereo unspecified) , its GI50 was > 10 µM (inactive)

// sample CC1(c2cccc(N)c2)C2C(=O)NC(=O)C1C(=O)NC2=O (stereo unspecified) , its GI50 was 35.9 µM (inactive)

// sample CN(C)/C=C/C(=O)c1cccc(C(=O)/C=C/N(C)C)n1 , its GI50 was 80.4 µM (inactive)

More entries:
// sample O=C(SCc1cccc2ccccc12)c1ccc(Cl)cc1 , its GI50 was > 100 µM (inactive)

// sample N#CC(C#N)=CSc1ccccc1 , its GI50 was 17.8 µM (inactive)
